- tested_on: Glutaryl-CoA dehydrogenase, mitochondrial (Homo sapiens, UniProt Q92947)
- Sequence (Q92947 whole entry): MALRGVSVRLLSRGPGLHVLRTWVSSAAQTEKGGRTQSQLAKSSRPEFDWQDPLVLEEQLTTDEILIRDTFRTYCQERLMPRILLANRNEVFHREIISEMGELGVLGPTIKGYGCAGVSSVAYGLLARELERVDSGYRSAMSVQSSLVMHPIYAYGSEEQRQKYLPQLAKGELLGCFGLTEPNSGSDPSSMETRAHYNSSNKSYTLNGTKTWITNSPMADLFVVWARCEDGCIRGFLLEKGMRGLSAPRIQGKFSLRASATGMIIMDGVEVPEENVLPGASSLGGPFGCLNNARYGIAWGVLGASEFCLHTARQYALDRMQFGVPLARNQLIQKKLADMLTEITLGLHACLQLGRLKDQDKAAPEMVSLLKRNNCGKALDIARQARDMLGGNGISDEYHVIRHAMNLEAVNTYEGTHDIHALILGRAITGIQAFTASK
- protocol_details: Binding affinity to GCDH in human HepG2 assessed as intensity fold change of cumulated normalized intensity of protein between capture and competition assay at 100 uM after 1 hr in presence of active Tcp-CC-13 by differential competition capture compound mass spectrometry
- Type: ADME
Listing of recorded fold change (FC) by entry.

| smiles_entry | fold change (FC) |
| --- | --- |
| CCN(CC)C(=O)c1cc2cc(O)c(O)c([N+](=O)[O-])c2cc1C(=O)N(CC)CC | 5.9 |
| CCN1C(=O)S/C(=C/c2cc(O)c(O)c([N+](=O)[O-])c2)C1=O | 6.34 |
| CCN(CC)C(=O)/C(C#N)=C/c1cc(O)c(O)c([N+](=O)[O-])c1 | 6.09 |
| Cc1ccc(C(=O)c2cc(O)c(O)c([N+](=O)[O-])c2)cc1 | 5.82 |
